Data provenance is patent US20220193132A1.

Biological target: T1, EGFRvIII amino acid residues 15 to 37 with Tyr25 to Ala mutation (human)
T1 construct: mutation is already in the entry
T1 peptide: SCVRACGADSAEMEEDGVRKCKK
Experiment: yeast display flow cytometry, Myc-normalized;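 also: Anti-EGFRvIII monoclonal antibodies tested by flow cytometry on yeast displaying alanine-substituted fragments, two-color indirect fluorescence with anti-Myc signal tracking fusion protein expression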
OBSERVED_PROPERTY: % of binding vs wild-type fragment 15-37 (%)
Your answer should be a plain number; it is taken to be in %.

Please review the entries below; each comes with its answer.
Quick one: % of binding vs wild-type fragment 15-37 of F263-4B3 (antibody, V domains shown, Mouse hybridoma mAb) VH: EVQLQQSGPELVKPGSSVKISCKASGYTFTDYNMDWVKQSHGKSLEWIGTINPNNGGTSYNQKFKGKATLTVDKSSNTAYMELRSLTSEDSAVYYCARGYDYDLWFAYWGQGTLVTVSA VL: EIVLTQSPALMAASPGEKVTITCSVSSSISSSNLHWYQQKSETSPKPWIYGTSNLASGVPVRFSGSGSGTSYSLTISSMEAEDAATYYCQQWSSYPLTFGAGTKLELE ?
98.8

Need % of binding vs wild-type fragment 15-37 of F263-4E11 (antibody, V domains shown, Mouse hybridoma mAb) VH: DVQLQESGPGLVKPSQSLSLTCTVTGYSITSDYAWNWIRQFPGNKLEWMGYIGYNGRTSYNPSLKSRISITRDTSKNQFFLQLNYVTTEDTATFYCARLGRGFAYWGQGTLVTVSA VL: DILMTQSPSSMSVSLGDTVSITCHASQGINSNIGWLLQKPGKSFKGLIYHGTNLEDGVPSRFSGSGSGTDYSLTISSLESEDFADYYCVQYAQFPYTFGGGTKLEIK , thanks.
83.3

# % of binding vs wild-type fragment 15-37 lookup, item F263-5D8 (antibody, V domains shown, Mouse hybridoma mAb) VH: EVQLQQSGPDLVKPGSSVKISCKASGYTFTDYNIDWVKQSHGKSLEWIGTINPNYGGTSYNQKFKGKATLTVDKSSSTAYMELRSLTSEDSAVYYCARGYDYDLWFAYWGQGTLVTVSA VL: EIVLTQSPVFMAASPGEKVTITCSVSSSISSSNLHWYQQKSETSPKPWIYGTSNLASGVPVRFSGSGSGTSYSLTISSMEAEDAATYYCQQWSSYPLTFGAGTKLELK
108

Now take the following binder into account.
So what's the measured % of binding vs wild-type fragment 15-37 for this one? F265-9C9 (antibody, V domains shown, Mouse hybridoma mAb) VH: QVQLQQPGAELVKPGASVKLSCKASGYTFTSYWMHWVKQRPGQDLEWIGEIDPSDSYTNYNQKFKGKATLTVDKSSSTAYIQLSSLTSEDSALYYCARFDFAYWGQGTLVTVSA VL: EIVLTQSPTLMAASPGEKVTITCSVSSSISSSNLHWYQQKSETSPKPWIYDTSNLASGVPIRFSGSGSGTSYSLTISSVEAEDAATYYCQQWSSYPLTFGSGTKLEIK
152
